Numbers sourced from the METLIN SMRT retention time set (Domingo-Almenara et al. 2019).

experiment: gradient 5% acetonitrile 3 min, to 50% in 2 min, to 85% in 15 min, held 3 min, 100 µL/min; conditions: column: Zorbax Extend-C18 2.1 x 50 mm; eluents: water / acetonitrile, 0.1% formic acid
QUANTITY_KIND: RP-LC retention time (s)

[A] Fc1cccc(-c2noc(-c3nc(-c4ccncc4)no3)n2)c1
[B] CCCCNC(=O)C1CCC(=O)N(c2ccc(OC)cc2)C1c1ccc(OC)c(OC)c1 (stereo not given)
Of A and B , whose reported RP-LC retention time is the larger number? Return value: the label identifying the chosen record.
A

[I] CCOc1ccc(S(=O)(=O)NCc2c(-c3ccccc3)nc3sc(C)nn23)cc1
[II] COc1ccc(NC(=O)N2CCC(n3c(C)nc4cccnc43)CC2)cc1OC
Between I and II , which one has the lower reported RP-LC retention time value? Return value: the label identifying the chosen record.
II
(II: 563 s, I: 913 s)

[1] CCOc1ccccc1NC(=O)C(=O)Nc1ccc([N+](=O)[O-])cc1
[2] O=C(Nc1cc(F)ccc1Cl)c1ccc2c(c1)nnn2CCN1CCOCC1
Between 1 and 2 , which one has the lower reported RP-LC retention time value? Return value: the label identifying the chosen record.
2
(2: 633 s, 1: 1060 s)

----------
experiment: gradient 5% acetonitrile 3 min, to 50% in 2 min, to 85% in 15 min, held 3 min, 100 µL/min; conditions: column: Zorbax Extend-C18 2.1 x 50 mm; eluents: water / acetonitrile, 0.1% formic acid
QUANTITY_KIND: RP-LC retention time (s)

Use these answered entries as a reference point.
# SMILES_STRUCTURE, UNIT_ANNOTATION, RP-LC retention time
records = [
    ("CCc1cccc(-n2nnnc2N2CCN(C(=O)Nc3ccc(C)c(F)c3)CC2)c1", "s", 981),
    ("CN1Cc2ccccc2-n2ccnc2C12CCN(C(=O)c1ccc(Br)o1)CC2", "s", 615),
    ("COc1ccc(C(=O)N2CCc3ccc(C(=O)Nc4ccc5c(c4)OCCO5)cc32)cc1", "s", 868),
    ("Cc1ccc(NC(=O)N2CCOCCNC(=O)[C@H]3CCCC[C@H]32)cc1C", "s", 829),
    ("COC(=O)c1ccc2c(=O)n(-c3ccc4c(c3)OCO4)c(N3CCC(C)CC3)nc2c1", "s", 1150),
]

[I] Cc1cc(C)c(S(=O)(=O)N2CCCCC2)c(C)c1N(C)S(=O)(=O)c1ccccc1
[II] COCC1CCN(C(=O)COc2ccc(NC(=O)C3CC3)cn2)CC1
Between I and II , which one has the lower reported RP-LC retention time value? Return value: the label identifying the chosen record.
II
(II: 650 s, I: 1060 s)

----------
assay: gradient 5% acetonitrile 3 min, to 50% in 2 min, to 85% in 15 min, held 3 min, 100 µL/min; settings: column: Zorbax Extend-C18 2.1 x 50 mm; eluents: water / acetonitrile, 0.1% formic acid
QUANTITY_KIND: RP-LC retention time (s)

# MOLECULE, RP-LC retention time / s
measured = [
    ("CCOC(=O)c1c(C)[nH]c(C(=O)N2CCCC(C(=O)NCc3ccccc3C)C2)c1C (stereo not given)", 814),
    ("CCCNC(=O)NC1CCN(c2nc3ccccc3n(CC)c2=O)CC1", 770),
    ("O=C(NCc1ccccc1)c1nc(Cn2c(=O)oc3ccccc32)no1", 880),
]

[A] COC(=O)c1c2c(nc3ccccc13)CCN(C(=O)Nc1ccccc1OC)C2
[B] CC(C)(C)c1csc(-c2csc(S(=O)(=O)NCc3ccc(Br)cc3)c2)n1
Of A and B , whose reported RP-LC retention time is the larger number? Return value: the label identifying the chosen record.
B
(B: 1300 s, A: 820 s)
